assay: Human plasma half-life assay; type: in vitro ADME; conditions: human plasma, 37° C., LC-MS; read-out: Human Plasma T½ (converted)
Where no end group is shown, it is not given here. [ ]: non-standard residue; d: D form. The star is where a group is joined. Ac6c = NC1(C(=O)O)CCCCC1; X1 = CCCN1C(=O)CC(*)C1=O; Ac5c = NC1(C(=O)O)CCCC1; Aib = CC(C)(N)C(=O)O
# Lookup of reported half-life at 0.1 mg/ml keyed by entry
measured_property: half-life at 0.1 mg/ml

substance	endpoint_value
Y[dA]EGTFISDY[Ac5c]IAMDKIHQQDFVNWLLAQKGKKNDWKHNI[Ac5c]Q-OH [Example 106, (D-Ala^2, A5c^11, 41)hGIP(1-42)-OH]	> 55 h
Y[Aib]EGTF[Ac6c]SDYSIAMDKIHQQDFVNWLLAQKGKKNDWKHNC(X1)TQ-OH [Example 78, [Aib^2, A6c^7, Cys(Psu)^40]hGIP(1-42)-OH]	10.1 h
Y[Aib]EGTFI[Aib]DYSIAMDKIHQQDFVNWLLAQKGKKNDWKHNITQ-OH [Example 9, (Aib^2, 8)hGIP(1-42)-OH]	> 48 h

----------
# Lookup of reported pKi keyed by entry
target: human recombinant GIP receptor (Homo sapiens); construct: expressed in transfected cells; host or cells: CHO-K1 clonal cells (membranes); test: In vitro hGIP receptor binding assay ([125I]GIP displacement, CHO-K1 membranes)
Sequence (P48546 22-466): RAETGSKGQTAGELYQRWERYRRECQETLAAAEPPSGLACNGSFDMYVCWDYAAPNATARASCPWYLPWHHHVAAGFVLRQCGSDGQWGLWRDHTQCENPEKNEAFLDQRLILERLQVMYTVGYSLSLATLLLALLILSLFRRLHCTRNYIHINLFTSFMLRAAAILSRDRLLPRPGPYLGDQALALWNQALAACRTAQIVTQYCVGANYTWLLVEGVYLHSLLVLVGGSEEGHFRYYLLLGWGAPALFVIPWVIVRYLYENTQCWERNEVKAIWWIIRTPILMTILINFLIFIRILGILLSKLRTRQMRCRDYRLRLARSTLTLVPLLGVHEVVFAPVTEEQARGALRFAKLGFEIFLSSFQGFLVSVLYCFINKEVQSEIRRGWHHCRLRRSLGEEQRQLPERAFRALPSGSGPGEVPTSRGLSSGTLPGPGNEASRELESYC
pKi: −log10 of the molar value. Where no end group is shown, it is not given here. [ ]: non-standard residue; d: D form. Ac6c = NC1(C(=O)O)CCCCC1; Nle = CCCC[C@H](N)C(=O)O; Aib = CC(C)(N)C(=O)O
measured_property: pKi

substance	assay_target	endpoint_value
Y[Aib]EGTF[Ac6c]SDYSIAMDKIHQQDFVNWLLAQKGKKNDWKHNI[Aib]Q-OH [Example 23, (Aib^2, 41, A6c^7)hGIP(1-42)-OH]	human recombinant GIP receptor (Homo sapiens)	9.06
Y[Aib]EGTF[Ac6c]SDYSIAMDKIHQQDFVNWLLAQKGKKNDWKHNITQ-OH [Example 43, (Aib^2, A6c^7)hGIP(1-42)-OH]	human recombinant GIP receptor (Homo sapiens)	9.52
Y[Aib]EGTFISDYSIA[Ac6c]DKIHQQDFVNWLLAQKGKKNDWKHNITQ-OH [Example 42, (Aib^2, A6c^14)hGIP(1-42)-OH]	human recombinant GIP receptor (Homo sapiens)	10.15
Y[Aib]EGTF[Ac6c]SDYSI[Aib][Nle]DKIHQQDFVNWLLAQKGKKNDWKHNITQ-OH [Example 21, (Aib^2, 13, A6c^7, Nle^14)hGIP(1-42)-OH]	human recombinant GIP receptor (Homo sapiens)	9.52
Y[Aib]EGTFISDY[Aib]IA[Ac6c]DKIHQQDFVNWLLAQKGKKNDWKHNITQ-OH [Example 41, (Aib^2, 11, A6c^14)hGIP(1-42)-OH]	human recombinant GIP receptor (Homo sapiens)	9.14

----------
Experiment: Human plasma half-life assay
Type: in vitro ADME
Conditions: human plasma, 37° C., LC-MS; read-out: Human Plasma T½ (converted)
Protocol: B. Human and Rat Plasma Half-Life Assay 50 μL was removed at various times, like at 0, 1, 2, 3, 4, 8, 24, 32, 48, 56, 72 hours, mixed with 5 μL formic acid and 150 μL acetonitrile in a microcentrifuge tube, vertexed, and centrifuged for 10 minutes at 10K rpm. The supernatant was transferred to an injection vial and analyzed by LC-MS. The LC-MS system consisted of an API4000 mass spectrometer with an ESI probe. Positive ion mode and full scan detection were used. […]
*1 amine or outer side, *2 acyl side, *3 side chain or, on linkers, in order; H or OH if unused. Where no end group is shown, it is not given here. [ ]: non-standard residue; d: D form. The star is where a group is joined. Desaminotyrosyl = O=C(CCc1ccc(O)cc1)*; X2 = O=C([C@@H]1CC(O)CN1[*:1])[*:2]; Ac6c = NC1(C(=O)O)CCCCC1; Ac5c = NC1(C(=O)O)CCCC1; Aib = CC(C)(N)C(=O)O
# Lookup of reported half-life at 0.1 mg/ml keyed by entry
measured_property: half-life at 0.1 mg/ml (min)

substance	reading_qualifier	endpoint_value
Y[Aib]EGTFISDY[Ac5c]IA[Ac6c]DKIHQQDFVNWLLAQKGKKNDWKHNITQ-OH [Example 61, (Aib^2, A5c^11, A6c^14)hGIP(1-42)-OH]	>	2880
H-YA[X2]GTFISDYSIA[Ac6c]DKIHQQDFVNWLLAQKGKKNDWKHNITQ-OH [Example 84, (4Hyp^3, A6c^14)hGIP(1-42)-OH]	=	198
Y[Aib]EGTFISDY[Aib]IAMDKIHQQDFVNWLLAQKGKKNDWKHNITQ-OH [Example 1, (Aib^2, 11)hGIP(1-42)-OH]	>	2880
Y[dA]EGTFISDY[Ac5c]IAMDKIHQQDFVNWLLAQKGKKNDWKHN[Ac5c]TQ-OH [Example 104, (D-Ala^2, A5c^11,40)hGIP(1-42)-OH]	=	1210
Desaminotyrosyl-AEGTFISDYSI[Aib]MDKIHQQDFVNWLLAQKGKKNDWKHNITQ-OH [Example 101, (4Hppa^1, Aib^13)hGIP(1-42)-OH]	=	2850
Y[Aib]EGTFISDYS[Aib]AMDKIHQQDFVNWLLAQKGKKNDWKHNITQ-OH [Example 8, (Aib^2, 12)hGIP(1-42)-OH]	>	2880

----------
experiment: Rat plasma half-life assay; assay type: in vitro ADME; details: rat plasma, 37° C., LC-MS; read-out: Rat Plasma T½ (converted)
*1 amine or outer side, *2 acyl side, *3 side chain or, on linkers, in order; H or OH if unused. Where no end group is shown, it is not given here. [ ]: non-standard residue; d: D form. The star is where a group is joined. NMeY = CN[C@@H](Cc1ccc(O)cc1)C(=O)O; X2 = O=C([C@@H]1CC(O)CN1[*:1])[*:2]; Pip = O=C(O)[C@@H]1CCCCN1; Ac6c = NC1(C(=O)O)CCCCC1; Nle = CCCC[C@H](N)C(=O)O; X1 = CCCN1C(=O)CC(*)C1=O; Ac5c = NC1(C(=O)O)CCCC1; Aib = CC(C)(N)C(=O)O
Criterion: half-life at 0.1 mg/ml strictly less than 7 h. Met: satisfied. Not met: not satisfied.

substance	category
YA[Pip]GTFISDYSI[Aib]MDKIHQQDFVNWLLAQKGKKNDWKHNITQ [Example 65, (hPro^3, Aib^13)hGIP(1-42)-OH]	satisfied
Y[Aib]EGTF[Ac6c]SDYSIA[Nle]DKIHQQDFVNWLL[Aib]QKGKKNDWKHNITQ-OH [Example 30, (Aib^2, 28, A6c^7, Nle^14)hGIP(1-42)-OH]	not satisfied
Y[Aib]EGTF[Ac6c]SDYSIAMDKIHQQDFVNWLLAQKGKKNDC(X1)KHNITQ-OH [Example 81, [Aib^2, A6c^7, Cys(Psu)^36]hGIP(1-42)-OH]	satisfied
Y[Aib]EGTFISDY[Ac5c]IAMDKIHQQDFVNWLLAQKGKKNDWKHNITQ-OH [Example 53, (Aib^2, A5c^11)hGIP(1-42)-OH]	not satisfied
Y[Aib]EGTF[Ac6c]SDYSIAMDKIHQQDFVNWLLAQKGKKNDWKC(X1)NITQ-OH [Example 80, [Aib^2, A6c^7, Cys(Psu)^38]hGIP(1-42)-OH]	satisfied
Y[Aib]EGTF[Ac6c]SDYSIA[Nle]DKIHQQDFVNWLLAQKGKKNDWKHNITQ-OH [Example 55, (Aib^2, A6c^7, Nle^14)hGIP(1-42)-OH]	not satisfied
Y[Aib]EGTF[Ac6c]SDYSIAMDKIHQQDFVNWLLAQK[Aib]KKNDWKHNITQ-OH [Example 22, (Aib^2, 31, A6c^7)hGIP(1-42)-OH]	not satisfied
Y[Aib]EGTFISDY[Aib]IA[Nle]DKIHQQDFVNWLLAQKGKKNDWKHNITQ-OH [Example 45, (Aib^2, 11, Nle^14)hGIP(1-42)-OH]	not satisfied
H-[NMeY][Aib]EGTFISDY[Ac5c]IA[Nle]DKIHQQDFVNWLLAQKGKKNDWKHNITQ-OH [Example 113]	not satisfied
Y[Aib]EGTFISDY[Aib]IAMDKIHQQDFVNWLLAQKGKKNDWKHNITQ-OH [Example 1, (Aib^2, 11)hGIP(1-42)-OH]	satisfied
YAPGTFISDY[Ac5c]IA[Ac6c]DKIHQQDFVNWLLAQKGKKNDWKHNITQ-OH [Example 102, (Pro^3, A5c^11, A6c^14)hGIP(1-42)-OH]	satisfied
Y[Aib]EGTF[Ac6c]SDYSIAMDKIHQQDFVNWLLAQKGKKNDWKHNC(X1)TQ-OH [Example 78, [Aib^2, A6c^7, Cys(Psu)^40]hGIP(1-42)-OH]	not satisfied
H-YA[X2]GTFISDY[Ac5c]IAMDKIHQQDFVNWLLAQKGKKNDWKHNITQ-OH [Example 87, (4Hyp^3, A5c^11)hGIP(1-42)-OH]	satisfied
